- Method Notes: Pharmacokinetics in rat
- Assay type: in vivo
- Reported Conditions: plasma, 0.5 mg/kg (iv), Table 8
Result Type: clearance (mL/min/kg)
Answers are plain numbers, in mL/min/kg.

Input: # lookup: clearance of "Cn1nc(Nc2cc(-c3cccc(-n4ccc5cc(C(C)(C)C#N)cc(F)c5c4=O)c3CO)nn(C)c2=O)cc1CN1CCC1"
Output: 84.9

* * *

- Method Notes: Pharmacokinetics in rat
- Type: in vivo
- Reported Conditions: plasma, 2 mg/kg, 0.5 (iv), 2 (po) mg/kg, Table 8
Result Type: bioavailability

Input: Reported bioavailability for Cn1nc(Nc2cc(-c3cccc(-n4ccc5cc(C(C)(C)C#N)cc(F)c5c4=O)c3CO)nn(C)c2=O)cc1CN1CCC1 [Compound 2] : what is it?
Output: < 2%

* * *

- System Under Test: Btk kinase (Homo sapiens, UniProt Q06187)
- Sequence (Q06187 whole entry): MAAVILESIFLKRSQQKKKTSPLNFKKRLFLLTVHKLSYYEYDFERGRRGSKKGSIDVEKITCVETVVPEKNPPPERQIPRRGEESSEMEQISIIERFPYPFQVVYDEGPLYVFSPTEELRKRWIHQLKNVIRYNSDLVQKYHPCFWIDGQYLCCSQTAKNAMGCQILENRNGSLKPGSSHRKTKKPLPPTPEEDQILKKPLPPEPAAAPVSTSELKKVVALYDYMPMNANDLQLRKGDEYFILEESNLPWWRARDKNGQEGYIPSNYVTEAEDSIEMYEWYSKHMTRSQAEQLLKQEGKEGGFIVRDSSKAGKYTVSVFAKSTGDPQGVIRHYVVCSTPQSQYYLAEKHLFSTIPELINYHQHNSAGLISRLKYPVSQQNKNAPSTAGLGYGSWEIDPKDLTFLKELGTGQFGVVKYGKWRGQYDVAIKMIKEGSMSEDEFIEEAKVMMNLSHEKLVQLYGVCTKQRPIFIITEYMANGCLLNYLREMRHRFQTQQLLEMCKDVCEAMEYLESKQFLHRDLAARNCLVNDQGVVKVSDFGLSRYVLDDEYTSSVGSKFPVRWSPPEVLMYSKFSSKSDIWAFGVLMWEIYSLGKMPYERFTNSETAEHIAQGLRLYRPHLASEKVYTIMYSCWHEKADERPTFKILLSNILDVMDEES
Result Type: Kd (nM)
Numbers only, in nM.

Input: Form field: reported Kd of "CN1CCC(c2ccc(Nc3cc(-c4ccnc(-n5ncc6cc(C(C)(C)C)cc(F)c6c5=O)c4CO)nn(C)c3=O)nc2)CC1"
Output: 0.408

* * *

- Method Notes: Pharmacokinetics in rat
- Format: in vivo
- Reported Conditions: plasma, 2 mg/kg, 0.5 (iv), 2 (po) mg/kg, Table 9
Result Type: bioavailability (%)
Numbers only, in %.

Input: What value of measured bioavailability is listed for "COCCNCc1ccc(Nc2cc(-c3cccc(N4CCc5cc(C(C)(C)C)ccc5C4=O)c3CO)cn(C)c2=O)nc1" ?
Output: 7

* * *

- Method Notes: Pharmacokinetics in dog
- Assay type: in vivo
- Reported Conditions: plasma, 1 mg/kg, 1.0 (iv), 1.0 (po) mg/kg
Result Type: bioavailability (%)
Give bare numbers, in %.

Input: I have this compound here, "CN1CCC(c2ccc(Nc3cc(-c4ccnc(-n5ncc6cc(C(C)(C)C)cc(F)c6c5=O)c4CO)nn(C)c3=O)nc2)CC1" , and I need its recorded bioavailability.
Output: 1.5

* * *

- Method Notes: Pharmacokinetics in dog
- Type: in vivo
- Reported Conditions: plasma, 1.0 mg/kg (iv), Table 8
Result Type: clearance (mL/min/kg)
Numbers only, in mL/min/kg.

Input: What does the data say about its clearance? Entry: "Cn1nc(Nc2cc(-c3cccc(-n4ccc5cc(C(C)(C)C#N)cc(F)c5c4=O)c3CO)nn(C)c2=O)cc1CN1CCC1"
Output: 35

* * *

- System Under Test: Bruton's Tyrosine Kinase (Homo sapiens, UniProt Q06187)
- Method Notes: Bruton's Tyrosine Kinase (BTK) inhibition TR-FRET competition assay
- Reported Conditions: inactivated state of BTK, 18-24 h at 14° C.
- Description: This BTK competition assay measures compound potency (IC50) for the inactivated state of Bruton's Tyrosine Kinase using FRET (Firster/Fluorescence Resonance Energy Transfer) technology. […] After the incubation the plates were read on a BMG Pherastar Fluorescent plate reader (or equivalent) and used to measure the emission energy from the europium donor fluorophore (620 nm emission) and the FRET (665 nm emission). […] Percent of maximal FRET was calculated using following equation: […]
Would you mind telling me the reported pIC50 of each entry?
Answers are plain numbers, as −log10 of the molar value.

Would you please look over these solved cases?
{"Molecule Smiles": "Cn1nc(Nc2cc(-c3cccc(-n4ccc5cc(C(C)(C)C#N)cc(F)c5c4=O)c3CO)nn(C)c2=O)cc1CN1CCC1", "Measured Result": 8.96}
{"Molecule Smiles": "COCCNCc1ccc(Nc2cc(-c3cccc(N4CCc5cc(C(C)(C)C)ccc5C4=O)c3CO)cn(C)c2=O)nc1", "Measured Result": 9.70}

Here is the next item to consider.
Input: May I ask what pIC50 has been recorded for "CN1CCC(c2ccc(Nc3cc(-c4ccnc(-n5ncc6cc(C(C)(C)C)cc(F)c6c5=O)c4CO)nn(C)c3=O)nc2)CC1" ?
Output: 9.40

* * *

- Method Notes: Pharmacokinetics in mouse
- Assay type: in vivo
- Reported Conditions: plasma, 1.0 mg/kg (iv)
Result Type: clearance (mL/min/kg)
One number for each entry, in mL/min/kg.

Input: Can you share its clearance? I mean this molecule: CN1CCC(c2ccc(Nc3cc(-c4ccnc(-n5ncc6cc(C(C)(C)C)cc(F)c6c5=O)c4CO)nn(C)c3=O)nc2)CC1 [Compound 1]
Output: 26

* * *

- Tested on: human mast cells (FCεRI activation)
- Method Notes: Human mast cell activation, mediator release after FCεRI activation
- Type: cell-based
- Reported Conditions: N = 3 donors, read-out: IC50 Histamine release
Result Type: pIC50
Numbers only, as −log10 of the molar value.

Below, each entry is followed by its recorded pIC50 result.
{"Molecule Smiles": "CN1CCC(c2ccc(Nc3cc(-c4ccnc(-n5ncc6cc(C(C)(C)C)cc(F)c6c5=O)c4CO)nn(C)c3=O)nc2)CC1", "Measured Result": 7.83}
{"Molecule Smiles": "COCCNCc1ccc(Nc2cc(-c3cccc(N4CCc5cc(C(C)(C)C)ccc5C4=O)c3CO)cn(C)c2=O)nc1", "Measured Result": 7.66}

Continue with the next molecule.
Input: Report pIC50 for "Cn1nc(Nc2cc(-c3cccc(-n4ccc5cc(C(C)(C)C#N)cc(F)c5c4=O)c3CO)nn(C)c2=O)cc1CN1CCC1" please.
Output: 8.02

* * *

- Method Notes: Pharmacokinetics in cynomolgus monkey
- Type: in vivo
- Reported Conditions: cynomolgus monkey, plasma; Cyno, 0.3 mg/kg (iv)
Result Type: clearance (mL/min/kg)
Give bare numbers, in mL/min/kg.

Input: Report clearance for "CN1CCC(c2ccc(Nc3cc(-c4ccnc(-n5ncc6cc(C(C)(C)C)cc(F)c6c5=O)c4CO)nn(C)c3=O)nc2)CC1" please.
Output: 38.9
